Test system: Morganella morganii
Experiment: In vitro antibacterial activity against VGH-84-12 strain of Morganella morganii
Format: functional
assay readout: MIC (µg/mL)
API: value field is a number in µg/mL; no unit string.

Recorded results for 2 compounds are shown here.
                                   compound  target_or_test_system  assay_readout  obs_value
0  C[C@H]1[C@H](NC(=O)/C(=N\OC(C)(C)C(=O)O)c2csc(N)n2)C(=O)N1S(=O)(=O)O    Morganella morganii            MIC       0.03
1  C=CCOC(=O)CNN1CC(NC(=O)/C(=N/OC)c2csc(N)n2)C1=O (centres undefined)    Morganella morganii            MIC         64

// CO/N=C(/C(=O)NC1CN(/N=C/C(=O)O)C1=O)c1csc(N)n1 (centres undefined) : MIC value = 4
